Please provide measured Hydrolysis to treprostinil, % Area, t = 3 weeks for the entries that follow.
- measurement-protocol: Hydrolysis of prodrugs to treprostinil at pH 6, 7, 8 and 40 C
- Type: physicochemical
- condition-context: pH 8, 40 C., 3 weeks

The value of Hydrolysis to treprostinil, % Area, t = 3 weeks measured for the compound CCCCCC(CCC1C(O)CC2Cc3c(cccc3OCC(=O)O)CC21)OC(=O)c1ccc(O)cc1 (stereo not shown) [Prodrug LXVIII] turned out to be 0.00 % Area

The value of Hydrolysis to treprostinil, % Area, t = 3 weeks measured for the compound CCCCCC(CCC1C(OC(=O)CC)CC2Cc3c(cccc3OCC(=O)O)CC21)OC(=O)CC (stereo not shown) [Prodrug LXX, treprostinil dipropionate] turned out to be 0.00 % Area

The value of Hydrolysis to treprostinil, % Area, t = 3 weeks measured for the compound CCCCCC(CCC1C(OC(=O)OC)CC2Cc3c(cccc3OCC(=O)O)CC21)OC(=O)OC (stereo not shown) [Prodrug LXXI, treprostinil dicarbonate] turned out to be 0.38 % Area

The value of Hydrolysis to treprostinil, % Area, t = 3 weeks measured for the compound CCCCCC(CCC1C(O)CC2Cc3c(cccc3OCC(=O)O)CC21)OC(=O)c1ccc(O)c(O)c1 (stereo not shown) [Prodrug LXVI] turned out to be 2.6 % Area

----------
- measurement-protocol: Hydrolysis of prodrugs to treprostinil at pH 6, 7, 8 and 40 C
- Type: physicochemical
- condition-context: pH 8, 40 C., 2 weeks
quantity-kind: Hydrolysis to treprostinil, % Area, t = 2 weeks (% Area)
Your answer is read as % Area, so omit the unit and give the number.

The value of Hydrolysis to treprostinil, % Area, t = 2 weeks measured for the molecule CCCCCC(CCC1C(O)CC2Cc3c(cccc3OCC(=O)O)CC21)OC(=O)C(C)C (centres unmarked) [Prodrug LXVII] turned out to be 0.23

The value of Hydrolysis to treprostinil, % Area, t = 2 weeks measured for the molecule CCCCCC(CCC1C(O)CC2Cc3c(cccc3OCC(=O)O)CC21)OC(=O)c1ccc(O)c(O)c1 (centres unmarked) [Prodrug LXVI] turned out to be 1.6

The value of Hydrolysis to treprostinil, % Area, t = 2 weeks measured for the molecule CCCCCC(CCC1C(O)CC2Cc3c(cccc3OCC(=O)O)CC21)OC(=O)COc1ccc(OC(F)(F)F)cc1 (centres unmarked) [Prodrug LXIV] turned out to be 3.9

The value of Hydrolysis to treprostinil, % Area, t = 2 weeks measured for the molecule CCCCCC(CCC1C(O)CC2Cc3c(cccc3OCC(=O)O)CC21)OC(=O)COc1ccccc1 (centres unmarked) [Prodrug LXV] turned out to be 11.4

The value of Hydrolysis to treprostinil, % Area, t = 2 weeks measured for the molecule CCCCCC(CCC1C(O)CC2Cc3c(cccc3OCC(=O)O)CC21)OC(=O)c1ccc(O)cc1 (centres unmarked) [Prodrug LXVIII] turned out to be 0.00

The value of Hydrolysis to treprostinil, % Area, t = 2 weeks measured for the molecule CCCCCC(CCC1C(OC(=O)OC)CC2Cc3c(cccc3OCC(=O)O)CC21)OC(=O)OC (centres unmarked) [Prodrug LXXI, treprostinil dicarbonate] turned out to be 0.00

The value of Hydrolysis to treprostinil, % Area, t = 2 weeks measured for the molecule CCCCCC(CCC1C(OC(=O)CC)CC2Cc3c(cccc3OCC(=O)O)CC21)OC(=O)CC (centres unmarked) [Prodrug LXX, treprostinil dipropionate] turned out to be 0.00

The value of Hydrolysis to treprostinil, % Area, t = 2 weeks measured for the molecule CCCCCC(CCC1C(O)CC2Cc3c(cccc3OCC(=O)O)CC21)OC(=O)C12CC3CC(CC(C3)C1)C2 (centres unmarked) [Prodrug LXIX] turned out to be 0.00

Data origin: patent US12491170B2
